B1: SASS6 (parent)
chain: QKELQDVGQSLRIKEQEVCKLQEQ

- Variants of: B1
- method: protein stability index of a GFP-peptide fusion (GPS, HEK-293T) (PSI 1-6); higher = more stable;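 further: lentivirally expressed fusions sorted by FACS into six bins by GFP to DsRed ratio, PSI derived from sequencing read proportions per bin multiplied by bin number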
- test-context: c terminus: a fixed tail appended
Listed next: entries and their corresponding protein stability index.
Kindly provide the number alone.

// worked examples, protein stability index included
E23K
4.89
C19M
5.34
Q16L
4.71
Q16C
4.99
S10V
3.9

## Input Item `K20N` : provide protein stability index
## Output 5.12

## Input Item `E3L` : provide protein stability index
## Output 4.92

## Input Item `Q9C` : provide protein stability index
## Output 4.76

## Input Item `Q24M` : provide protein stability index
## Output 5.05

## Input Item `R12F` : provide protein stability index
## Output 5.02

## Input Item `K14Y` : provide protein stability index
## Output 4.68

## Input Item `I13L` : provide protein stability index
## Output 5.57

## Input Item `K14H` : provide protein stability index
## Output 4.78
